Tested on: E. coli PRP1 TetA
Assay: MIC, agar dilution (Table IA)
Assay type: cell-based
Settings: unit assumed
Structures can show the parent of a compound that is named as a salt.
Quick reference for Antibacterial activity (MIC) among some compounds
Unit µg/mL implied. Number only.

Completed entries (count: 5):
CCCCNCC(=O)Nc1cc(N(C)C)c2c(c1O)C(=O)C1=C(O)C3(O)C(=O)C(C(N)=O)=C(O)C(N(C)C)C3CC1C2.Cl.Cl (stereo not shown) | 1
CN(C)c1cc(NC(=O)CN2CCCC2)c(O)c2c1CC1CC3[C@H](N(C)C)C(O)=C(C(N)=O)C(=O)[C@@]3(O)C(O)=C1C2=O (stereo partly shown) [SS, dihydrochloride] | 0.5
CNCC(=O)Nc1cc(N(C)C)c2c(c1O)C(=O)C1=C(O)[C@]3(O)C(=O)C(C(N)=O)=C(O)[C@@H](N(C)C)C3CC1C2.Cl.Cl (stereo partly shown) | 16
CN(C)CC(=O)Nc1cc(N(C)C)c2c(c1O)C(=O)C1=C(O)[C@]3(O)C(=O)C(C(=O)NCN4CCOCC4)=C(O)[C@@H](N(C)C)C3CC1C2 (stereo partly shown) | 1
CCNCC(=O)Nc1cc(N(C)C)c2c(c1O)C(=O)C1=C(O)[C@]3(O)C(=O)C(C(N)=O)=C(O)[C@@H](N(C)C)C3CC1C2.Cl.Cl (stereo partly shown) | 2

Antibacterial activity (MIC) lookup needed for CC(C(=O)Nc1cc(N(C)C)c2c(c1O)C(=O)C1=C(O)C3(O)C(=O)C(C(N)=O)=C(O)C(N(C)C)C3CC1C2)N1CCCC1.Cl.Cl (stereo not shown) , thanks.
0.5

Endpoint output: Antibacterial activity (MIC) of CN(C)CC(=O)Nc1cc(N(C)C)c2c(c1O)C(=O)C1=C(O)C3(O)C(=O)C(C(N)=O)=C(O)C(N(C)C)C3CC1C2 (stereo not shown) . Value?
1

// lookup Antibacterial activity (MIC) for CCCCCCNCC(=O)Nc1cc(N(C)C)c2c(c1O)C(=O)C1=C(O)[C@]3(O)C(=O)C(C(N)=O)=C(O)[C@@H](N(C)C)C3CC1C2 (stereo partly shown) [BBB, dihydrochloride]
0.5

Which Antibacterial activity (MIC) reading was recorded for the compound CCN(CC)CC(=O)Nc1cc(N(C)C)c2c(c1O)C(=O)C1=C(O)[C@]3(O)C(=O)C(C(N)=O)=C(O)[C@@H](N(C)C)C3CC1C2.Cl.Cl (stereo partly shown) ?
2

What does the record list as Antibacterial activity (MIC) for CCCNCC(=O)Nc1cc(N(C)C)c2c(c1O)C(=O)C1=C(O)C3(O)C(=O)C(C(N)=O)=C(O)C(N(C)C)C3CC1C2.Cl.Cl (stereo not shown) ?
1

Returns the measured Antibacterial activity (MIC) for the input compound. Input: CCCCCNCC(=O)Nc1cc(N(C)C)c2c(c1O)C(=O)C1=C(O)C3(O)C(=O)C(C(N)=O)=C(O)C(N(C)C)C3CC1C2.Cl.Cl (stereo not shown)
1

Requested field: Antibacterial activity (MIC). Item: CNC(C)C(=O)Nc1cc(N(C)C)c2c(c1O)C(=O)C1=C(O)[C@]3(O)C(=O)C(C(N)=O)=C(O)[C@@H](N(C)C)C3CC1C2.Cl.Cl (stereo partly shown)
2

====

Test system: E. faecalis 12201
Test: MIC, agar dilution
Assay type: cell-based
Conditions: Enterococcus 12201; Table IA; unit assumed
readoutLabel: Antibacterial activity (MIC) (µg/mL)
Expressed in µg/mL, but write only the number.

Record excerpt, results attached:
CN(C)CCCC(=O)Nc1cc(N(C)C)c2c(c1O)C(=O)C1=C(O)[C@]3(O)C(=O)C(C(N)=O)=C(O)[C@@H](N(C)C)C3CC1C2.Cl.Cl (stereo partly drawn) [ZZ] | 8
CCCCCNCC(=O)Nc1cc(N(C)C)c2c(c1O)C(=O)C1=C(O)C3(O)C(=O)C(C(N)=O)=C(O)C(N(C)C)C3CC1C2.Cl.Cl (stereo not drawn) [DDD] | 0.25

In the following, a different compound is considered.
Item under review: CN(C)c1cc(NC(=O)CNC2CC2)c(O)c2c1CC1CC3C(N(C)C)C(O)=C(C(N)=O)C(=O)C3(O)C(O)=C1C2=O.Cl.Cl (stereo not drawn) [QQ] . Reported Antibacterial activity (MIC)?
0.5

====

Parameter Antibacterial activity (MIC): see the listing below.
System: S. mariescens FDOR 8733
Assay: MIC, agar dilution (Table IA)
Type: cell-based
Conditions: unit assumed
Your answer should be a plain number; it is taken to be in mg/L.

Some entries whose results are on file:
CN(C)CC(=O)Nc1cc(N(C)C)c2c(c1O)C(=O)C1=C(O)C3(O)C(=O)C(C(N)=O)=C(O)C(N(C)C)C3CC1C2 (centres unmarked) [LL] | 2
CN(C)c1cc(NC(=O)CNCc2ccccc2)c(O)c2c1CC1CC3C(N(C)C)C(O)=C(C(N)=O)C(=O)C3(O)C(O)=C1C2=O.Cl.Cl (centres unmarked) [EEE] | 4
CN(C)c1cc(NC(=O)CN2CCCCC2)c(O)c2c1CC1CC3C(N(C)C)C(O)=C(C(N)=O)C(=O)C3(O)C(O)=C1C2=O.Cl.Cl (centres unmarked) [UU] | 4
CN(C)CC(=O)Nc1cc(N(C)C)c2c(c1O)C(=O)C1=C(O)[C@]3(O)C(=O)C(C(=O)NCN4CCCC4)=C(O)[C@@H](N(C)C)C3CC1C2 (some centres unmarked) [FFF] | 4

Value lookup for Antibacterial activity (MIC); key = CCCNCC(=O)Nc1cc(N(C)C)c2c(c1O)C(=O)C1=C(O)C3(O)C(=O)C(C(N)=O)=C(O)C(N(C)C)C3CC1C2.Cl.Cl (centres unmarked) [WW]
2

Entry under review: CN(C)CC(=O)Nc1cc(N(C)C)c2c(c1O)C(=O)C1=C(O)C3(O)C(=O)C(C(N)=O)=C(O)C(N(C)C)C3CC1C2.O=S(=O)(O)O.O=S(=O)(O)O (centres unmarked) [JJ] . Reported Antibacterial activity (MIC)?
4

====

Test system: S. aureus UBMS 88-4 (Sensitive)
Assay: MIC, agar dilution
Assay type: cell-based
Conditions: S. aureus UBMS 88-4 (Sensitive)
One threshold, 0.5 µg/mL, splits the recorded MIC values: lower ones are y, equal or higher ones are n.

CN(C)c1ccc(C(=O)Nc2cc(N(C)C)c3c(c2O)C(=O)C2=C(O)[C@]4(O)C(=O)C(C(N)=O)=C(O)[C@@H](N(C)C)[C@@H]4C[C@@H]2C3)cc1 [W] | n

MIC under 0.5 µg/mL? Item: CN(C)c1cc(NC(=O)C(F)(F)F)c(O)c2c1C[C@H]1C[C@H]3[C@H](N(C)C)C(O)=C(C(N)=O)C(=O)[C@@]3(O)C(O)=C1C2=O.O=S(=O)(O)O [I]
n

For CN(C)c1cc(NS(C)(=O)=O)c(O)c2c1CC1CC3C(N(C)C)C(O)=C(C(N)=O)C(=O)C3(O)C(O)=C1C2=O (stereo not drawn) [FF] , is the recorded MIC below the cut-off of 0.5 µg/mL?
y

Please indicate whether the reported MIC of CN(C)c1cc(NS(=O)(=O)c2ccc([N+](=O)[O-])cc2)c(O)c2c1CC1CC3C(N(C)C)C(O)=C(C(N)=O)C(=O)C3(O)C(O)=C1C2=O (stereo not drawn) [AA] is strictly below 0.5 µg/mL.
y

# check: MIC < 0.5 µg/mL for CN(C)c1cc(NC(=O)c2ccc([N+](=O)[O-])cc2)c(O)c2c1CC1CC3C(N(C)C)C(O)=C(C(N)=O)C(=O)C3(O)C(O)=C1C2=O (stereo not drawn) [V]
n

====

Tested on: E. coli J3272 Tet sens.
Test: MIC, agar dilution (Table IA)
Assay type: cell-based
Settings: unit assumed
Counter-ions that a name gives are not always drawn.
Listing of recorded Antibacterial activity (MIC) by entry.

These solved cases illustrate the format of a correct answer.
CN(C)c1cc(NC(=O)CNC2CC2)c(O)c2c1CC1CC3C(N(C)C)C(O)=C(C(N)=O)C(=O)C3(O)C(O)=C1C2=O.Cl.Cl (stereo not drawn) [QQ] | 2 µg/mL
CCN(CC)CC(=O)Nc1cc(N(C)C)c2c(c1O)C(=O)C1=C(O)[C@]3(O)C(=O)C(C(N)=O)=C(O)[C@@H](N(C)C)C3CC1C2.Cl.Cl (stereo partly drawn) [RR] | 1 µg/mL
CN(C)c1cc(NC(=O)CBr)c(O)c2c1CC1CC3[C@H](N(C)C)C(O)=C(C(N)=O)C(=O)[C@@]3(O)C(O)=C1C2=O.Cl.Cl (stereo partly drawn) [III] | 16 µg/mL
CN(C)CC(=O)Nc1cc(N(C)C)c2c(c1O)C(=O)C1=C(O)C3(O)C(=O)C(C(N)=O)=C(O)C(N(C)C)C3CC1C2.O=S(=O)(O)O.O=S(=O)(O)O (stereo not drawn) [JJ] | 0.25 µg/mL
CN(C)c1cc(NC(=O)CN2CCCC2)c(O)c2c1CC1CC3[C@H](N(C)C)C(O)=C(C(N)=O)C(=O)[C@@]3(O)C(O)=C1C2=O (stereo partly drawn) [SS, dihydrochloride] | 0.25 µg/mL

Form field: reported Antibacterial activity (MIC) of CN(C)CC(=O)Nc1cc(N(C)C)c2c(c1O)C(=O)C1=C(O)C3(O)C(=O)C(C(N)=O)=C(O)C(N(C)C)C3CC1C2 (stereo not drawn) [LL]
0.12 µg/mL

// query Antibacterial activity (MIC) value for entry CN(C)c1cc(NC(=O)CNCC(=O)O)c(O)c2c1CC1CC3C(N(C)C)C(O)=C(C(N)=O)C(=O)C3(O)C(O)=C1C2=O (stereo not drawn) [KKK]
> 32 µg/mL

Query (molecule): CN(C)c1cc(NC(=O)CN2CCCCC2)c(O)c2c1CC1CC3C(N(C)C)C(O)=C(C(N)=O)C(=O)C3(O)C(O)=C1C2=O.Cl.Cl (stereo not drawn) [UU] ; field requested: Antibacterial activity (MIC)
0.5 µg/mL

Reported Antibacterial activity (MIC), molecule CN(C)c1cc(NC(=O)CNC2CCC2)c(O)c2c1CC1CC3C(N(C)C)C(O)=C(C(N)=O)C(=O)C3(O)C(O)=C1C2=O (stereo not drawn) [MMM] : ____
0.06 µg/mL
